Provenance of the data: PubChem BioAssay (NCI)

test system: SW-620 colon; assay: NCI tumour cell line growth inhibition, 48 h
Reported TGI values for the following compounds.

# compound, testedSystem, TGI
data = [
    ("Cc1ccc(C(=O)N/N=C(\\N=Nc2ccccc2[N+](=O)[O-])c2ccc(N(C)C)cc2)cc1", "SW-620 colon", "> 100 µM"),
]

stdin: Using the record for CS(=O)(=O)CCCn1c(=O)c(Oc2ccc(F)cc2F)cc2cnc(NC3CCOCC3)nc21 , report its TGI.
stdout: > 25 µM

stdin: Using the record for COc1cccc(/C=N/[N-]C(=O)c2ccncc2)c1[O-].[Cu+2].[OH3+] , report its TGI.
stdout: > 100 µM

----------
Reported TGI values for the following compounds.
test system: A549 NSCLC; assay: NCI tumour cell line growth inhibition, 48 h

A selection of reference data follows.
# compound, TGI
rows = [
    ("O=C(/C=C/C=C/c1ccccc1)c1ccc2c(c1)CCCC2", "> 100 µM"),
    ("c1ccc(SC2CCSc3ccccc3C2Sc2ccccc2)cc1 (stereo not given)", "> 100 µM"),
    ("CC(C)(C)C(=O)OC(N)/C=C/c1ccccc1 (stereo not given)", "> 100 µM"),
    ("CCO/C=N/NC(=O)CSc1nc2ccc(I)cc2c(=O)n1Cc1ccccc1", "> 100 µM"),
    ("O=C(c1cc(Cl)cc(Cl)c1)N1CCN(C(=O)c2cc(Cl)cc(Cl)c2)C1=S", "44.6 µM"),
]

stdin: Using the record for O=C1NN=C2C=C(c3ccc(Cl)cc3)CC(c3cccc(Cl)c3)C12 (stereo not given) , report its TGI.
stdout: 37.2 µM

stdin: Using the record for Cn1c(=O)c2c(no[n+]2[O-])c2ccccc21 , report its TGI.
stdout: > 100 µM

stdin: Using the record for O=C(Nc1cc(Cl)ccc1Cl)c1cc2cccc(Cl)c2oc1=O , report its TGI.
stdout: > 100 µM

stdin: Using the record for CCN(CC)CCOc1ccc(/C=C2\CC3C4CC=C5C[C@@H](O)CC[C@]5(C)C4CC[C@]3(C)C2=O)cc1OC (stereo not given in full) , report its TGI.
stdout: 26.1 µM

stdin: Using the record for C=CC(=O)N1CCC(C2CCNc3c(C(N)=O)c(-c4ccc(Oc5ccccc5)cc4)nn32)CC1 (stereo not given) , report its TGI.
stdout: > 100 µM

----------
system: HCC-2998 colon; experiment: NCI tumour cell line growth inhibition, 48 h
Reported TGI values for the following compounds.

A selection of reference data follows.
# compound, dataValue
measured = [
    ("c1ccc(SC2CCSc3ccccc3C2Sc2ccccc2)cc1 (stereo not given)", "> 100 µM"),
    ("CCc1cccc(C)c1NC(=O)C(=O)Cc1nc2ccccc2o1", "> 100 µM"),
    ("COc1cccc(/C=N/[N-]C(=O)c2ccncc2)c1[O-].[Cu+2].[OH3+]", "> 100 µM"),
]

The record that follows has no TGI shown yet.
stdin: Using the record for CC(/C=N\NC(=S)N1CCCCC1)=N/NC(=S)N1CCCCC1 , report its TGI.
stdout: 11.7 µM

----------
Reported log10(TGI) values for the following molecules.
test system: SF-539 CNS; assay: NCI tumour cell line growth inhibition, 48 h
Remember, log10 of TGI, in µM.

# molecule, testedSystem, log10(TGI)
data = [
    ("O=C(c1cc(Cl)cc(Cl)c1)N1CCN(C(=O)c2cc(Cl)cc(Cl)c2)C1=S", "SF-539 CNS", 1.36),
    ("C#CCN(CC#C)C(=O)C(=O)c1c[nH]c2ccc(OC)cc12", "SF-539 CNS", 1.47),
    ("Cc1ccc(/C=C/c2c(C(=O)/C=C/c3ccc(C(F)(F)F)cc3)c(C)nc3ccccc23)cc1", "SF-539 CNS", 0.51),
    ("CC1C[C@]2(C)C(=O)Nc3ccccc3[C@@H]2Nc2ccccc21 (stereo not given in full)", "SF-539 CNS", 1.80),
]

stdin: Using the record for COc1ccc(CCN=C2OCc3ccccc32)cc1OC , report its log10(TGI).
stdout: 1.80

stdin: Using the record for O=C(NC(CO)Cc1ccc(Oc2cc(CC(CO)NC(=O)OCc3ccccc3)ccc2OC(=O)OCc2ccccc2)cc1)OCc1ccccc1 (stereo not given) , report its log10(TGI).
stdout: 1.59

stdin: Using the record for C=CCc1cccc(/C=N/NC(=O)CN2CCN(Cc3ccccc3)CC2)c1O , report its log10(TGI).
stdout: 0.98

stdin: Using the record for C[C@@]12CCC3C1C=C1C(=O)c4cc(O)ccc4C(=O)[C@]1(O2)[C@@]3(C)C=O , report its log10(TGI).
stdout: 1.09

stdin: Using the record for O=C(NCCCCN=c1cccccc1NCCCCNC(=O)OCc1ccccc1)OCc1ccccc1 , report its log10(TGI).
stdout: 1.50

stdin: Using the record for O=C(NCCCN(CCCCN(CCCNC(=O)C(F)(F)F)CCCc1ccccc1)CCCc1ccccc1)C(F)(F)F , report its log10(TGI).
stdout: 0.50

stdin: Using the record for CC(C)=CCc1cc(O)cc2c1OC(C=C(C)C)C1=C2C(=O)C2=C(NCCS2(=O)=O)C1=O (stereo not given) , report its log10(TGI).
stdout: 0.68

----------
Reported TGI values for the following compounds.
tested on: CAKI-1 renal; experiment: NCI tumour cell line growth inhibition, 48 h

# compound, TGI
measured = [
    ("Cc1c(Cl)cccc1N1C(=O)C(Cl)=C(Cl)C1=O", "> 80.9 µM"),
    ("O=C(NC(=O)c1cn(CCNCCO)c(=O)[nH]c1=O)OCc1ccccc1", "> 100 µM"),
    ("C[C@H]1Oc2cc(cnc2N)-c2c(nn(C)c2C#N)CN(C)C(=O)c2ccc(F)cc21", "> 100 µM"),
    ("O=S(=O)(O)c1ccc(N=Nc2ccc(N=Nc3c(O)ccc4ccccc34)cc2)cc1", "> 100 µM"),
    ("Nc1nc2c(ncn2Cc2ccc(CO)cc2)c(=O)[nH]1", "> 100 µM"),
    ("COc1ccncc1C#Cc1cncc(C(=O)Nc2ccc(CN3CCN(C)CC3)c(C(F)(F)F)c2)c1", "> 100 µM"),
    ("Oc1cc(O)c2c(c1)OC(c1ccc(O)c(O)c1)C(OC1(c3cc(O)c(O)c(O)c3)Oc3cc(O)cc(O)c3C(O)C1O)C2 (stereo not given)", "81.1 µM"),
    ("CCc1nc2ccc(N=NN(C)C)cc2[nH]1", "> 100 µM"),
    ("CC12CC(C#N)(C#N)C(C#N)(CO1)C(=N)O2 (stereo not given)", "> 100 µM"),
]

The record that follows has no TGI shown yet.
stdin: Using the record for CC#C[P+](c1ccccc1)(c1ccccc1)c1ccccc1 , report its TGI.
stdout: 11.3 µM

----------
test system: KM12 colon; experiment: NCI tumour cell line growth inhibition, 48 h
parameter: TGI

stdin: Using the record for CCOc1ccc2c(c1)[n+]([O-])c(-c1ccccc1Cl)c(N)[n+]2[O-] , report its TGI.
stdout: > 100 µM

stdin: Using the record for CC(NNC(=O)CC(=O)N(C(=O)c1ccccc1)c1ccc(Cl)cc1)c1cc2ccccc2oc1=O (stereo unspecified) , report its TGI.
stdout: > 10 µM

----------
system: MDA-MB-231 breast; assay: NCI tumour cell line growth inhibition, 48 h
parameter: TGI

A selection of reference data follows.
# molecule, testedSystem, TGI
data = [
    ("COc1ccc2[nH]cc(-c3nc(-c4c[nH]c5ncccc45)cs3)c2c1", "MDA-MB-231 breast", "> 100 µM"),
    ("O=c1cc(-c2ccccc2)[nH]c2c(S)cccc12", "MDA-MB-231 breast", "> 100 µM"),
    ("CSc1nncc2[nH]c(C)nc12", "MDA-MB-231 breast", "> 100 µM"),
    ("NS(=O)(=O)c1ccc(N(/C=C/C(=O)C(F)(F)F)CC(=O)c2ccc(Cl)cc2)cc1", "MDA-MB-231 breast", "> 100 µM"),
    ("COc1ccc(-c2oc(=O)ccc2-c2cc(OC)c(OC)c(OC)c2)cc1F", "MDA-MB-231 breast", "> 100 µM"),
]

stdin: Can you look up TGI on MDA-MB-231 breast for O=C(CCc1cc(O)cc(O)c1)NCCc1cc(O)cc(O)c1 ?
stdout: > 100 µM

stdin: Can you look up TGI on MDA-MB-231 breast for CCCNC(=S)/N=C/c1c(O)c2ccccc2[nH]c1=O ?
stdout: > 100 µM

stdin: Can you look up TGI on MDA-MB-231 breast for Cn1cnc([N+](=O)[O-])c1S(=O)(=O)Oc1ccccc1 ?
stdout: 47.9 µM

stdin: Can you look up TGI on MDA-MB-231 breast for N#Cc1c(-c2ccc(F)cc2)c(-c2ccc(F)cc2)nn(CCO)c1=O ?
stdout: > 71 µM

stdin: Can you look up TGI on MDA-MB-231 breast for CN(C)/C=N/n1c2ccccc2c2ccccc21 ?
stdout: > 100 µM

stdin: Can you look up TGI on MDA-MB-231 breast for COc1ccc(-c2nc(SCC(=O)N/N=C/c3ccc(O)c(OC)c3)[nH]c2-c2ccc(OC)cc2)cc1 ?
stdout: 84.5 µM

stdin: Can you look up TGI on MDA-MB-231 breast for Cc1ccc(-c2c3c(n(C4OC(CO)C(O)C(O)C4O)c(=S)c2C#N)CC(C)(C)CC3=O)cc1 (configuration not stated) ?
stdout: > 100 µM
